Test system: RPMI-8226 leukemia
Test: NCI tumour cell line growth inhibition, 48 h
Each item that follows carries a reported TGI.

COMPOUND | REPORTED VALUE
CCOC(=O)C1=C(OC(OCC)C(C)[Se]c2ccccc2)CCC1 (stereo not drawn) | 36.5 µM
N#Cc1nc(C(O)c2ccccc2)oc1N (stereo not drawn) | > 100 µM
NCCN.O=C([O-])C(=O)[O-].O=C([O-])C(=O)[O-].[Co+3].[K+] | > 100 µM
O=C(Nc1ccc2ncccc2c1)c1cc2c(cc1Cl)Sc1nccn1S2(=O)=O | 41 µM
O=C1CCC2(c3ccc(F)cc3)Nc3ncccc3N12 (stereo not drawn) | > 100 µM
O=c1[nH]c2[nH]c(-c3ccc(Br)cc3)cc2c2ccccc12 | > 100 µM
Nc1nc(N)c2c(Cl)c(CNc3ccc(C(=O)NC(CC(=O)O)C(=O)O)cc3)ccc2n1 (stereo not drawn) | > 100 µM
O=C(N/N=C/c1c(Cl)cccc1Cl)c1cccnc1Nc1cccc(C(F)(F)F)c1 | 4.88 µM

Incoming: Would you kindly share the measured TGI for `CCOC(=O)/C(C#N)=C/c1ccc(SCc2ccco2)c([N+](=O)[O-])c1` ?
Outgoing: > 100 µM

Incoming: Would you kindly share the measured TGI for `CCOP(=O)(OCC)/C(C#N)=C\c1ccc(OC(C)=O)cc1` ?
Outgoing: > 100 µM

Incoming: Would you kindly share the measured TGI for `Cc1cc(Cc2cc(Cc3cc(C)cc(C(C)(C)C)c3O)c(C)cc2C)c(O)c(C(C)(C)C)c1` ?
Outgoing: 65 µM

Incoming: Would you kindly share the measured TGI for COc1nc(Cl)nc(Cl)c1Cl (tested in a mixture with another compound) ?
Outgoing: 5.61 µM

Incoming: Would you kindly share the measured TGI for `Nc1ccc(I)cn1` ?
Outgoing: > 100 µM

Incoming: Would you kindly share the measured TGI for `CC(=O)N(O)CCCCCNC(=O)CCC(=O)N(O)CCCCCNC(=O)CCC(=O)N(O)CCCCCN` ?
Outgoing: > 100 µM

Incoming: Would you kindly share the measured TGI for `O=C1c2cccc(O)c2C(=O)c2cccc(O)c21` ?
Outgoing: > 100 µM

###

Test system: SF-539 CNS
Assay: NCI tumour cell line growth inhibition, 48 h
Each item that follows carries a reported TGI.

COMPOUND | TGI
CCOC(=O)c1ccc(NC(=O)O/N=C(/Cl)CC)cc1 | 33.6 µM
CCOC(=O)/C=C1/SC(N2CCCCC2)C(=O)N1CC (stereo unspecified) | > 100 µM
Cc1cc(N(CCNc2ccnc3cc(Cl)ccc23)Cc2cccs2)nc(Cl)n1 | 3.29 µM

Incoming: Would you kindly share the measured TGI for `CC1=C(c2cc(C(=O)Nc3cc(C)ccc3C)nc(N)n2)Sc2ccccc2N1` ?
Outgoing: > 100 µM

Incoming: Would you kindly share the measured TGI for `COc1ccc2c(c1)[n+]([O-])c(C#N)c(NC(=O)c1cccs1)[n+]2[O-]` ?
Outgoing: > 100 µM

Incoming: Would you kindly share the measured TGI for `CC1=C(C(=O)N[C@@H](CC(C)C)C(=O)O)N2C(=O)[C@@H](NC(=O)[C@@H](N)Cc3ccccc3)[C@H]2SC1` ?
Outgoing: > 100 µM

Incoming: Would you kindly share the measured TGI for `C=C1C(=O)O[C@H]2[C@H]1CC/C(COC(=O)/C=C\C(=O)NCc1ccc(Cn3c(=O)sn(CCCI)c3=O)cc1)=C\CC[C@@]1(C)O[C@@H]21` ?
Outgoing: 1.34 µM

Incoming: Would you kindly share the measured TGI for `O=C1C(=Cc2cccs2)C(=O)N(CCc2ccccc2)S(=O)(=O)N1CCc1ccccc1` ?
Outgoing: > 50 µM

Incoming: Would you kindly share the measured TGI for O=c1cc(NCC(O)CN2CCOCC2)n(Cc2ccccc2)c(=O)n1Cc1ccccc1 (stereo unspecified) ?
Outgoing: > 100 µM

Incoming: Would you kindly share the measured TGI for `C=C1CCc2ccccc2C1=O` ?
Outgoing: > 100 µM

Incoming: Would you kindly share the measured TGI for CCOc1ccc2nc(NC(=O)C(=O)C(C#N)CC(C)(C)C=O)sc2c1 (stereo unspecified) ?
Outgoing: > 100 µM
